Value source: ChEMBL document CHEMBL1150213

Quick reference: IC50 of the listed items.
# targetDesc: Epidermal growth factor receptor (Homo sapiens, UniProt P00533)
# Sequence (P00533 whole entry): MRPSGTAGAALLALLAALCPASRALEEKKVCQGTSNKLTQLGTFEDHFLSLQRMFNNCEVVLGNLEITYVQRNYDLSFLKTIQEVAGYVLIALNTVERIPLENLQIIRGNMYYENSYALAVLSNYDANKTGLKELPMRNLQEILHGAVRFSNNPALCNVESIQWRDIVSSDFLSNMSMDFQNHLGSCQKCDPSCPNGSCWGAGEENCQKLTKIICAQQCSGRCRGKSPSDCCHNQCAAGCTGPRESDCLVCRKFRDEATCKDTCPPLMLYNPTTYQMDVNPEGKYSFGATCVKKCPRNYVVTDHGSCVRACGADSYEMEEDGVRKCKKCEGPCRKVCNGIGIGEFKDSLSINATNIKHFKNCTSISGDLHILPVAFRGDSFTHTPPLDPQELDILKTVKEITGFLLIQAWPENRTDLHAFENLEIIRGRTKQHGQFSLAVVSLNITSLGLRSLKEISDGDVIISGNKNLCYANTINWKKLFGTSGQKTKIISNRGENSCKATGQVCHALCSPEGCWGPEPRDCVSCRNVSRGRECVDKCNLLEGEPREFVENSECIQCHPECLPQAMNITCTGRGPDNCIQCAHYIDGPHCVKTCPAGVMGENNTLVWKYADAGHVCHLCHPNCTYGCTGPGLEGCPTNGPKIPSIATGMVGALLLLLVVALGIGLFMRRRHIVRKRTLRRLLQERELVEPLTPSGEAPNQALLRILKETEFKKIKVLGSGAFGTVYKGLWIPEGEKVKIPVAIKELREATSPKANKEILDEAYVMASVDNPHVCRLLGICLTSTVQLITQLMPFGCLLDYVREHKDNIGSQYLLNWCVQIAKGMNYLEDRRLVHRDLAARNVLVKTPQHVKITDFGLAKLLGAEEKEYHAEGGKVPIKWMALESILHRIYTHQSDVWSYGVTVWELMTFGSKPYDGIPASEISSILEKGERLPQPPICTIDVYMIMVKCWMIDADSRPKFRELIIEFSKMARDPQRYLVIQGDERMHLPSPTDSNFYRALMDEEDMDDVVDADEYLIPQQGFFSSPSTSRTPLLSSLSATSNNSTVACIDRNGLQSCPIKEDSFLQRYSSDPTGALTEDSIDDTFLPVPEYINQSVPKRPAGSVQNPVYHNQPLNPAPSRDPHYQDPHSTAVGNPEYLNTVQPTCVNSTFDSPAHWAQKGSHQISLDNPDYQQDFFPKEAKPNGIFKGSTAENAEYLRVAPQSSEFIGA
observable: IC50 (µM)

O=C(O)c1ccc(S(=O)(=O)Oc2ccc(/C=C/[N+](=O)[O-])cc2)c(O)c1; 0.3
N#C/C(=C\c1ccc(O)cc1)C(=O)O [alpha-CYANO-4-HYDROXYCINNAMIC ACID]; 200
N#CC(C#N)=C(O)c1ccc(O)cc1; 500
N#CC(C#N)=C(C#N)c1cccc(O)c1; 400
COc1cc(C(C#N)=C(C#N)C#N)cc(O)c1O; 6
O=[N+]([O-])/C=C/c1ccc(O)c(O)c1; 9
COC(=O)c1ccc(S(=O)(=O)Oc2ccc(/C=C/[N+](=O)[O-])cc2)cc1; 2
N#C/C(=C/c1ccc(O)c(O)c1)C(=O)NCCCCc1ccccc1; 0.1
COc1cc(/C=C/[N+](=O)[O-])ccc1OS(=O)(=O)c1ccc(C(=O)O)cc1; 3
O=C(O)c1cc(N(Cc2ccccc2O)Cc2cc(O)ccc2O)ccc1O; 0.0105
N#C/C(=C/c1ccc(O)c(O)c1)C(=O)Nc1ccccc1Cl; 10
N#CC(C#N)=C(N)/C(C#N)=C/c1ccc(O)c(O)c1; 3
N#CC(C#N)=C(C#N)c1ccc(C=O)cc1; 600
C[C@H](NC(=O)c1ccc(S(=O)(=O)Oc2ccc(/C=C/[N+](=O)[O-])cc2)cc1)C(=O)N[C@@H](C)C(=O)NCCN; 20
N#C/C(=C\c1ccc(O)c(O)c1)C(=O)c1ccc([N+](=O)[O-])cc1; 2
CCCCNC(=O)c1ccc(S(=O)(=O)Oc2ccc(/C=C/[N+](=O)[O-])cc2)cc1; 5
N#CC(C#N)=C(C#N)c1cc(O)c(O)c(O)c1; 3
O=c1cc(-c2ccc(O)cc2)oc2cc(O)cc(O)c12; 111
N#C/C(=C\c1ccc(O)c(O)c1)C(=O)c1ccccc1Cl; 2
O=c1c(O)c(-c2ccc(O)cc2)oc2cc(O)cc(O)c12; 10.5
